Target: Phosphatidylinositol 5-phosphate 4-kinase type-2 alpha (Homo sapiens) (UniProt P48426)
Sequence (P48426 whole entry, looked up): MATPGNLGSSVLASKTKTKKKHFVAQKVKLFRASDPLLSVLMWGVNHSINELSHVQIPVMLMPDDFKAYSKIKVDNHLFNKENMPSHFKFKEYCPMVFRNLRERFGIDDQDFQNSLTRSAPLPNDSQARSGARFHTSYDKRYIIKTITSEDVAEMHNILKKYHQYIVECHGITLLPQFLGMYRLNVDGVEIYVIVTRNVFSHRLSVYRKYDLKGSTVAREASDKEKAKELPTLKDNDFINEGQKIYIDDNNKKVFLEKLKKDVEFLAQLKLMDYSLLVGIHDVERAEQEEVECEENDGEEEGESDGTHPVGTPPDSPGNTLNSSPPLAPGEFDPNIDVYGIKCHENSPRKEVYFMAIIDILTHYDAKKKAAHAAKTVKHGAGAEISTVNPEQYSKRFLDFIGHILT
Assay: qHTS for Inhibitors of phosphatidylinositol 5-phosphate 4-kinase (PI5P4K); note: value at the top dose of about 77 µM; % is set by controls: 0 for no effect and ±100 for the full control effect
Settings: PI5P4Kalpha enzyme, ADP-Glo luminescence, 60 min
In all, about 330,000 compounds went through this assay and about 4,100 (1.2%) were called active. About 2% were inconclusive and are not listed. Rule for the calls: active = max response of -50% or lower; inconclusive = between -30% and -50%; inactive = -30% or higher. The sample holds actives, similar compounds and a random draw of the others, so the mix is not that of the screen.
The reply should name one outcome from 1 (active), 0 (inactive)

Recorded test call requested for COc1ccc(-c2ccc(CN3C(CC(C)C)C(=O)N(Cc4cn(CC5CCCCC5)nn4)CCS3(=O)=O)cc2)cn1 (stereo not given)
0

Recorded test call requested for "CCCCC(=O)NNC(=S)NC(=O)C(c1ccccc1)c1ccccc1"
1

Recorded test call requested for "CCOC(=O)[C@]12CCC=C1N(Cc1cccc3ccccc13)C(=O)[C@H](CC(=O)NCc1cccc(C(F)(F)F)c1)C2"
0

Recorded test call requested for COc1c(C)cc(C(O)c2ncc(-c3cccc(C(F)(F)F)c3)[nH]2)cc1C (stereo not given)
0

Recorded test call requested for CC1(C(=O)NCc2cccc3ccccc23)CCN1Cc1ccc(-c2ccccc2)o1 (stereo not given)
0

Recorded test call requested for "Cc1cc2nc(-c3ccc(F)cc3)c(Cc3ccsc3)n2c(C)c1Br"
0

Recorded test call requested for "CC(C)C[C@@H](COCc1ccc(Cl)cc1)N1CCN(C(=O)c2ccc(Cl)cc2Cl)CCC1=O"
0

Recorded test call requested for "CC(=O)c1ccc(-c2cnc3c(NC=O)cc(-c4cccc(NS(C)(=O)=O)c4)cn23)cc1"
1

Recorded test call requested for "CC(=O)Nc1cccc(-c2cc(NC=O)c3ncc(-c4ccc(F)c(Cl)c4)n3c2)c1"
1

Recorded test call requested for "Nc1c(NCCc2ccccc2)c2ccccc2oc1=O"
0

Recorded test call requested for "COCCNc1ncnc2c1ncn2[C@H]1CN(Cc2ccc(OC)cc2)C[C@@H](CO)O1"
0

Recorded test call requested for O=C(NCc1ccc(F)cc1)c1cc(C2CCCCN2C(=O)c2ccccn2)on1 (stereo not given)
0

Recorded test call requested for "COc1cccc(-c2cnc3c(NC(C)=O)cc(-c4cccc(NC(C)=O)c4)cn23)c1"
0

Recorded test call requested for "CC(=O)c1cccc(-c2cnc3c(NC=O)cc(-c4ccccc4Oc4ccccc4)cn23)c1"
0

Recorded test call requested for Cc1cc(C(=O)N2CCCC2(C)C(=O)O)c(C)o1 (stereo not given)
0

Recorded test call requested for "CC(=O)c1cccc(-c2cnc3c(NC=O)cc(-c4ccc(N(C)C)cc4)cn23)c1"
0

Recorded test call requested for "CC(=O)c1cccc(-c2cnc3c(NC=O)cc(-c4ccc(N5CCN(C)CC5)cc4)cn23)c1"
0

Recorded test call requested for "CN(C)C(=O)c1cccc(-c2cnc3c(NC=O)cc(-c4ccc(F)cc4)cn23)c1"
1

Recorded test call requested for "CCOC(=O)CSc1nccc(N(C)C)c1C#N"
0

Recorded test call requested for "Cc1cc2nc(-c3ccco3)c(Cc3cccc(F)c3)n2c(C)c1Br"
1

====

Target: Phosphatidylinositol 5-phosphate 4-kinase type-2 alpha (Homo sapiens) (UniProt P48426)
Assay: qHTS for Inhibitors of phosphatidylinositol 5-phosphate 4-kinase (PI5P4K); note: value at the top dose of about 77 µM; % is set by controls: 0 for no effect and ±100 for the full control effect
Conditions: PI5P4Kalpha enzyme, ADP-Glo luminescence, 60 min; stronger effect = lower value
Screen size: about 330,000 compounds; about 4,100 (1.2%) were called active. Roughly 2% stayed inconclusive and do not appear here. What follows is part of a selection rich in actives, with near analogues and random picks from the rest.
OBSERVATION TYPE: max response (%)
Form entry: value (%) — number only.

Assign max response to the following record: "Oc1[nH]c2ccccc2c1N=Nc1c(F)c(F)c(F)c(F)c1F"
1.14

Assign max response to the following record: CC1=C(C(=O)OC(C)(C)C)C(c2ccc(Br)cc2)NC(=O)N1CCCC(=O)O (stereo unspecified)
-68.2

Assign max response to the following record: O=C(CNC(=O)C1COc2ccccc2O1)N/N=C/c1cc(Br)c(O)c(Br)c1 (stereo unspecified)
-78.5

Assign max response to the following record: "Nc1nc(CSc2nnnn2-c2ccccc2)nc(Nc2ccccc2)n1"
2.21

Assign max response to the following record: "O=[N+]([O-])c1cc(S(=O)(=O)Nc2cccc(Cl)c2)ccc1N=Nc1c(O)[nH]c2ccccc12"
-75.5

Assign max response to the following record: "COCCN1C(=O)N[C@@H](c2ccccc2)C(C(=O)OC)=C1C"
3.31

Assign max response to the following record: "CCNC(=O)c1cc2c(c(-c3cccc(-c4cncnc4)c3)n1)[C@H](CCO)N(C(C)=O)C2"
1.34

Assign max response to the following record: "CCn1c(COc2c(C)cccc2C)nnc1SCc1nc2ccccc2c(=O)[nH]1"
-1.01

Assign max response to the following record: "COc1cccc(-c2cnc3c(NC(C)=O)cc(-c4cc(F)ccc4OC)cn23)c1"
0.465

Assign max response to the following record: C=CS(=O)c1sc(Cl)c(N2CCOCC2)c1[N+](=O)[O-] (stereo unspecified)
-71.5

Assign max response to the following record: "NC(=O)c1c(NC(=O)CSc2nnc(-c3ccco3)n2N)sc2c1CCCC2"
-79.7

Assign max response to the following record: CCCCCCN1CCN(C2CN(Cc3cn(CCCCCC)nn3)S(=O)(=O)C2)CC1 (stereo unspecified)
-1.03

Assign max response to the following record: "COc1ccc(C)cc1-n1nnnc1SCc1nc2ccccc2c(=O)[nH]1"
-6.87

Assign max response to the following record: COc1cc(Cn2c3ccc(NC(=O)CC(C)c4ccccc4)cc3c(=O)n2C)ccc1F (stereo unspecified)
2.27

Assign max response to the following record: O=S1(=O)CC(N2CCN(CCO)CC2)CN1Cc1cn(Cc2ccc(Cl)cc2)nn1 (stereo unspecified)
-1.75

Assign max response to the following record: "COc1cc(NC(=O)COc2ccccc2Cl)ccc1NC(=O)C(C)C"
-11.3

Assign max response to the following record: "Fc1cccc(Cc2c(-c3cccc(Cl)c3)nc3ccc(Br)cn23)c1"
-13.9

Assign max response to the following record: "O=C(COc1ccccc1)Nc1ccc(C(=O)N2CCCC2)cc1"
6.33

Assign max response to the following record: CC1=C(C(=O)OCc2ccccc2)C(c2ccc(C(F)(F)F)cc2)NC(=O)N1CCCCCC(=O)O (stereo unspecified)
-6.37

Assign max response to the following record: "Nn1c(SCC(=O)Nc2nccs2)nnc1-c1ccco1"
-11.2

Assign max response to the following record: "O=C(O)c1ccccc1/C=N/Nc1ccc(S(=O)(=O)Nc2ccc(Cl)cc2)cc1[N+](=O)[O-]"
-7.22

====

Could you please report measured max response for the items listed next?
Biological target: Phosphatidylinositol 5-phosphate 4-kinase type-2 alpha (Homo sapiens) (UniProt P48426)
Assay: qHTS for Inhibitors of phosphatidylinositol 5-phosphate 4-kinase (PI5P4K); note: value at the top dose of about 77 µM; % is set by controls: 0 for no effect and ±100 for the full control effect
Conditions: PI5P4Kalpha enzyme, ADP-Glo luminescence, 60 min; stronger effect = lower value
About 4,100 (1.2%) of roughly 330,000 compounds were called active. Roughly 2% stayed inconclusive and do not appear here. What follows is part of a selection rich in actives, with near analogues and random picks from the rest.
Form entry: value (%) — number only.

Assign max response to the following record: CC(OC(=O)CNC(=O)c1ccc(Cl)c([N+](=O)[O-])c1)C(=O)NCc1ccco1 (configuration not stated)
-12

Assign max response to the following record: CC1(Cc2ccccc2C#N)C(=O)Nc2ccc(-c3ccc4[nH]ccc4c3)cc21 (configuration not stated)
-19.1

Assign max response to the following record: "Nc1ccc2nc3c(=O)[nH]c(=S)[nH]c3nc2c1"
-105

Assign max response to the following record: "COc1cccc(/C=C2\SC(=S)N(CCCC(=O)N3CCOCC3)C2=O)c1"
1.86

Assign max response to the following record: O=C1OCCOC2CCCc3oc(-c4ccccc4)c1c32 (configuration not stated)
-3.14

Assign max response to the following record: "Cc1ccc(/C([O-])=C(/C(=S)NCc2ccco2)[n+]2ccccc2)cc1[N+](=O)[O-]"
-51.3

Assign max response to the following record: "COC(=O)c1ccc2nc(-c3ccccc3)c(Cc3ccc(OC)cc3C)n2c1"
-3.87

Assign max response to the following record: CC(C)(C)CC(=O)Nc1nc(C(N)Cc2ccc(C(F)(F)F)cc2)cs1 (configuration not stated)
0.168

Assign max response to the following record: O=C(Nc1ccc2c(c1)OCCO2)C1c2ccccc2OCC(=O)N1Cc1ccccn1 (configuration not stated)
6.39

Assign max response to the following record: "Cc1ccsc1C(=O)N/N=C/c1ccc([N+](=O)[O-])cc1"
-10.5

Assign max response to the following record: "CCc1nc2c(OCc3ccc(C(=O)OC)cc3)cccn2c1N(C)C(=O)C(C)C"
-5.01

Assign max response to the following record: "COc1ccc(/C=N/NC(=O)c2ccc3c(c2)OCCO3)c(OC)c1"
3.95

Assign max response to the following record: "N#CCC(=O)Nc1ccc(C(=O)OCC(=O)Nc2sc3c(c2C#N)CCCC3)cc1"
-64.2

Assign max response to the following record: "Fc1ccc(COc2ccc(-c3nnco3)cc2)cc1"
-2.69

Assign max response to the following record: "Cc1ccnc(-n2sc3ccccc3c2=O)n1"
-98.6

Assign max response to the following record: "COc1ccc(CN2C[C@H]3CON(C)[C@H]3C[C@H]2c2ccc(-c3cccc(F)c3)cc2)cc1"
18.3

Assign max response to the following record: "CCOc1ccc(NC(=O)CCNC(=O)c2ccc(Br)cc2)cc1"
-0.675

Assign max response to the following record: "COC(=O)c1ccc2nc(-c3ccc(Cl)cc3)c(Cc3cccc(F)c3)n2c1"
7.01

Assign max response to the following record: COc1ccc(C2CC(c3ccc([N+](=O)[O-])cc3)=NN2C(C)=O)cc1 (configuration not stated)
0.372

Assign max response to the following record: Cc1ccnc(N2CCCC(C(=O)NC3CC3)C2)n1 (configuration not stated)
-0.042

Assign max response to the following record: "CCOC(=O)[C@]12CCCC=C1N(CCC1=CCCCC1)C(=O)[C@H](CC(=O)N1CCSCC1)C2"
-1.78

Assign max response to the following record: "N=c1c2c3c(sc2ncn1N)CCCC3"
-4.92

Assign max response to the following record: "S=c1[nH]nc2c3c4c(sc3ncn12)CCCC4"
-58.2

Assign max response to the following record: "CCCCOCCCNC(=O)C[C@@H]1C[C@@]2(C(=O)OC)CCCCC=C2N(CCC2=CCCCC2)C1=O"
17.9

Assign max response to the following record: Cc1ccc(-c2ccc(CN3C(C)C(=O)N(Cc4cn(CCC5OCCCO5)nn4)CCS3(=O)=O)cc2)cc1 (configuration not stated)
-1.32

Assign max response to the following record: "COC(=O)c1sc2[nH]c(=S)n(N)c(=O)c2c1C"
-60.5

Assign max response to the following record: "CC(=O)N1CC[n+]2c(-c3ccc([N+](=O)[O-])cc3)csc21"
-61

Assign max response to the following record: COc1ccc(C(C(=O)Nc2c(C)cccc2C)N2CCN(c3ccc(C)cc3)CC2)cc1 (configuration not stated)
5.89

Assign max response to the following record: Cc1ccnc(SC2CC(=O)N(c3ccccc3)C2=O)n1 (configuration not stated)
-1.33

Assign max response to the following record: "O=C(NCc1ccco1)c1cccc(-c2ccc3nncn3c2)c1"
5.11

Assign max response to the following record: "N=c1c2c3c(sc2ncn1N)CCCCC3"
0.011

Assign max response to the following record: COc1ccc(NC(=O)C2Cc3c(-c4cccc(NC(C)=O)c4)ccnc3O2)cc1OC (configuration not stated)
-8.09

Assign max response to the following record: CCN(CC)CCN(C)C(c1ccnc2ccccc12)c1nnnn1-c1ccc2c(c1)OCCO2 (configuration not stated)
-0.0355

Assign max response to the following record: "CCOc1ccc2[nH]c(C(=O)N/N=C/c3cccc(OC)c3OC)cc2c1"
8.06

Assign max response to the following record: "COc1cccc(/C=N/NC(=O)c2[nH]nc3c2CCc2ccccc2-3)c1O"
-53

Assign max response to the following record: "COC1=C/C(=C/c2c(N)n3nc(CC(=O)N4CCOCC4)sc3nc2=O)C=CC1=O"
-79.3

Assign max response to the following record: "COC(=O)c1ccc2nc(-c3ccc(F)cc3)c(Cc3ccc(C)cc3)n2c1"
0.932

Assign max response to the following record: "O=c1ccc2c(-c3ccccc3S(=O)(=O)O)c3ccc(O)c(O)c3oc-2c1O"
-99.8

Assign max response to the following record: "COCCNc1nc(Nc2ccccc2Cl)c2sc(-c3ccccc3)cc2n1"
-2.99

Assign max response to the following record: "COc1ccc(-c2coc3c(C(=O)NC(C)C)cccc23)c(C)c1"
-1.18

Assign max response to the following record: "COc1cc(/C=C2\C(=N)N3N=C(CC(=O)N4CCOCC4)SC3=NC2=O)cc(OC)c1OC"
1.99

Assign max response to the following record: "O=C1/C(=C\c2ccc([N+](=O)[O-])cc2)CS(=O)(=O)C/C1=C/c1ccc([N+](=O)[O-])cc1"
-83.1
